target.under.test: Cyclin-dependent kinase 5/CDK5 activator 1 (Homo sapiens)
Sequence (Q00535 whole entry): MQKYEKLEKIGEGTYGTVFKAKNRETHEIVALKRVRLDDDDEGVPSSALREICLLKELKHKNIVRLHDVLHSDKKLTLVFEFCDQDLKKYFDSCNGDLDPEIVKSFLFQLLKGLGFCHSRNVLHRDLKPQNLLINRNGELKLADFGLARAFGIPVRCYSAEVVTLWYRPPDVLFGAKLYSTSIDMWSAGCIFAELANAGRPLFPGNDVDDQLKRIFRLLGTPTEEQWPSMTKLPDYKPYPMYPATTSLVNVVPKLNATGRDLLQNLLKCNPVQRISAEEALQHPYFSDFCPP
Sequence (Q15078 whole entry, further chain): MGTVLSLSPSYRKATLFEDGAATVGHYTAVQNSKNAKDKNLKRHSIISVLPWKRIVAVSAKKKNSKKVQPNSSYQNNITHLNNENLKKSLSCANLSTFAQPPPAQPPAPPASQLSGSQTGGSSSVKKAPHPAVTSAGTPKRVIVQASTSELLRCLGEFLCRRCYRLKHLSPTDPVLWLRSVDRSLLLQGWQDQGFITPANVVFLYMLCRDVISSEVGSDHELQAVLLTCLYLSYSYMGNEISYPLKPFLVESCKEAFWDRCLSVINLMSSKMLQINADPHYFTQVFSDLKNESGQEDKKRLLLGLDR
measurement.description: Inhibition of human recombinant CDK5/p25
Type: protein-complex assay
pIC50: −log10 of the molar value.
Each record here notes measured pIC50.

Worked cases, pIC50 given:
item.smiles: Cc1ccc2[nH]c3c(c4c(c5ccnn53)C(=O)NC4=O)c2c1
target.under.test: Cyclin-dependent kinase 5/CDK5 activator 1 (Homo sapiens)
result: < 5.00

item.smiles: COc1ccc2[nH]c3c(c4c(n5cccc35)C(=O)NC4=O)c2c1
target.under.test: Cyclin-dependent kinase 5/CDK5 activator 1 (Homo sapiens)
result: < 5.00

Let's switch to this compound now.
Data request: What value of pIC50 has been recorded for this entry: `COc1ccc2[nH]c3c(c4c(c5ccnn53)C(=O)NC4=O)c2c1`
Data returned: < 5.00

Taken from ChEMBL document CHEMBL2040806.
